tested on: human Factor 7 mRNA; assay: Dose-dependent antisense inhibition of human Factor 7 in HepB3 cells, lipofectin; format: cell-based; conditions: 3.125 nM, HepB3 cells, approx. 16 hours (Table 14)
Strand notation (5' to 3'): a small letter for the sugar, then the base; units joined by * are phosphorothioate-linked, units joined directly phosphodiester-linked; [ ] holds rarer units or linkages, { } end groups; capitals alone tell only the bases. e = 2'-O-(2-methoxyethyl) (MOE); [5mC] = 5-methylcytosine; d = 2'-deoxy (DNA)
This section presents substances with their documented percent inhibition of Factor 7 mRNA, relative to untreated control cells values.
measurementName: percent inhibition of Factor 7 mRNA, relative to untreated control cells

[
  {
    "substance": "422152 (antisense eA*eT*eG*d[5mC]*dA*dT*dG*dG*dT*dG*dA*dT*dG*d[5mC]*dT*dT*d[5mC]*eT*eG*eA) [compound 422152]",
    "result": "18%"
  },
  {
    "substance": "422292 (antisense eG*eT*dT*d[5mC]*dT*dG*d[5mC]*dA*dG*dG*dA*dG*d[5mC]*dG*dG*e[5mC]*e[5mC]*eT*eA*eA) [compound 422292]",
    "result": "13%"
  },
  {
    "substance": "422229 (antisense eA*eT*dG*d[5mC]*dA*dT*dG*dG*dT*dG*dA*dT*dG*d[5mC]*dT*eT*e[5mC]*eT*eG*eA) [compound 422229]",
    "result": "21%"
  },
  {
    "substance": "422295 (antisense e[5mC]*eG*dA*dG*dT*dT*d[5mC]*dT*dG*d[5mC]*dA*dG*dG*dA*dG*e[5mC]*eG*eG*e[5mC]*e[5mC]) [compound 422295]",
    "result": "17%"
  },
  {
    "substance": "422142 (antisense eG*eA*eG*eT*eT*d[5mC]*dT*dG*d[5mC]*dA*dG*dG*dA*dG*d[5mC]*eG*eG*e[5mC]*e[5mC]*eT) [compound 422142]",
    "result": "16%"
  },
  {
    "substance": "422296 (antisense e[5mC]*e[5mC]*dG*dA*dG*dT*dT*d[5mC]*dT*dG*d[5mC]*dA*dG*dG*dA*eG*e[5mC]*eG*eG*e[5mC]) [compound 422296]",
    "result": "21%"
  },
  {
    "substance": "422140 (antisense eG*eT*eT*e[5mC]*eT*dG*d[5mC]*dA*dG*dG*dA*dG*d[5mC]*dG*dG*e[5mC]*e[5mC]*eT*eA*eA) [compound 422140]",
    "result": "18%"
  },
  {
    "substance": "422183 (antisense eG*e[5mC]*eG*d[5mC]*d[5mC]*dA*d[5mC]*d[5mC]*d[5mC]*dG*d[5mC]*d[5mC]*dG*dG*d[5mC]*dT*d[5mC]*eT*eG*e[5mC]) [compound 422183]",
    "result": "28%"
  },
  {
    "substance": "422130 (antisense eG*e[5mC]*e[5mC]*eT*eG*dA*dG*dG*d[5mC]*d[5mC]*dA*dG*d[5mC]*dA*dG*eA*eT*e[5mC]*eA*e[5mC]) [compound 422130]",
    "result": "4%"
  },
  {
    "substance": "407935 (antisense eA*eT*eG*e[5mC]*eA*dT*dG*dG*dT*dG*dA*dT*dG*d[5mC]*dT*eT*e[5mC]*eT*eG*eA) [compound 407935]",
    "result": "19%"
  }
]
